Test system: ABUTH (Velvetleaf)
Test: Preemergence herbicidal evaluation
Assay type: in vivo, Abutilon theophrasti
Settings: preemergence, 0.1250 kg/ha, rated 4-5 weeks after treatment, 0-9 scale
Recorded measurements of ABUTH rating, one per entry
observed_property: ABUTH rating

molecule	observed_property	test_result
CCOC(=O)CN1C(=O)C(CC(=O)NS(=O)(=O)c2ccccc2)SC1=Nc1cc(-n2c(=O)cc(C(F)(F)F)n(C)c2=O)c(F)cc1Cl (stereo not shown) [Compound 100]	ABUTH rating	2.0
COC(=O)CC1SC(=Nc2cc(-n3c(=O)cc(C(F)(F)F)n(C)c3=O)c(F)cc2Cl)N(C)C1=O (stereo not shown) [Compound 88]	ABUTH rating	9.0
C=CCN1C(=O)C(CC(=O)OC(C)C(=O)OCC)SC1=Nc1cc(-n2c(=O)ccn(C)c2=O)c(F)cc1Cl (stereo not shown) [Compound 94]	ABUTH rating	9.0
CCS(=O)(=O)NC(=O)CC1SC(=Nc2cc(-n3c(=O)cc(C(F)(F)F)n(C)c3=O)c(F)cc2Cl)N(C)C1=O (stereo not shown) [Compound 105]	ABUTH rating	7.0
